Note to self: these compounds have pIC50 reported for UniProt:P56817 in various publications.
pIC50: −log10 of the molar value.
Measure name: pIC50

| Compound | System under test | Observed measurement |
| --- | --- | --- |
| O=C(Cc1ccc(OCc2cn(CCc3ccc(C(=O)Nc4nc5ccccc5s4)cc3)nn2)cc1)Nc1nc2ccccc2s1 | UniProt:P56817 | 5.07 |
| CC(=O)c1ccc(OCCOc2ccc(C(=O)c3ccc(CN(C)Cc4ccccc4)cc3)cc2)cc1O | UniProt:P56817 | 5.50 |
| Oc1ccc(C#Cc2cccc(-c3ccc(O)cc3)c2O)cc1 | UniProt:P56817 | 5.36 |
| N[C@@H](CCC(=O)NNc1ccc(F)cc1)C(=O)O | UniProt:P56817 | 4.70 |
| O=Cc1c(-c2ccc(O)cc2)ccc(O)c1C#Cc1ccc(O)cc1 | UniProt:P56817 | 5.64 |
| COc1ccc(-c2cc(=O)c3c(OC)c(OC)c(OC)c(OC)c3o2)cc1OC | UniProt:P56817 | 4.23 |
| O=C1O[C@H]([C@@H](O)COCc2cn(CC3Cc4c([nH]c5ccccc45)CN3)nn2)C(O)=C1O (some centres unmarked) | UniProt:P56817 | 3.14 |
| CN(Cc1ccccc1)Cc1ccc(C(=O)c2ccc(OCCOc3ccc4c(c3)OC(c3cccc5ccccc35)CC4=O)cc2)cc1 (centres unmarked) | UniProt:P56817 | 5.40 |
| Cc1cccc(NNC(=O)CC[C@H](N)C(=O)O)c1 | UniProt:P56817 | 4.65 |
| COc1ccc(-c2cc(=O)c3c(OC)c(OC)c(OC)cc3o2)cc1OC | UniProt:P56817 | 4.20 |
| COc1ccc2nc(NC(=O)Cc3ccc(OCc4cn(CCc5ccc(C(=O)Nc6nc7ccccc7s6)cc5)nn4)cc3)sc2c1 | UniProt:P56817 | 4.96 |
